Target: HCV E2 on E2-CT26 cells (Hepatitis C virus (genotype 1a)) (UniProt P27958)
Sequence (P27958 whole entry): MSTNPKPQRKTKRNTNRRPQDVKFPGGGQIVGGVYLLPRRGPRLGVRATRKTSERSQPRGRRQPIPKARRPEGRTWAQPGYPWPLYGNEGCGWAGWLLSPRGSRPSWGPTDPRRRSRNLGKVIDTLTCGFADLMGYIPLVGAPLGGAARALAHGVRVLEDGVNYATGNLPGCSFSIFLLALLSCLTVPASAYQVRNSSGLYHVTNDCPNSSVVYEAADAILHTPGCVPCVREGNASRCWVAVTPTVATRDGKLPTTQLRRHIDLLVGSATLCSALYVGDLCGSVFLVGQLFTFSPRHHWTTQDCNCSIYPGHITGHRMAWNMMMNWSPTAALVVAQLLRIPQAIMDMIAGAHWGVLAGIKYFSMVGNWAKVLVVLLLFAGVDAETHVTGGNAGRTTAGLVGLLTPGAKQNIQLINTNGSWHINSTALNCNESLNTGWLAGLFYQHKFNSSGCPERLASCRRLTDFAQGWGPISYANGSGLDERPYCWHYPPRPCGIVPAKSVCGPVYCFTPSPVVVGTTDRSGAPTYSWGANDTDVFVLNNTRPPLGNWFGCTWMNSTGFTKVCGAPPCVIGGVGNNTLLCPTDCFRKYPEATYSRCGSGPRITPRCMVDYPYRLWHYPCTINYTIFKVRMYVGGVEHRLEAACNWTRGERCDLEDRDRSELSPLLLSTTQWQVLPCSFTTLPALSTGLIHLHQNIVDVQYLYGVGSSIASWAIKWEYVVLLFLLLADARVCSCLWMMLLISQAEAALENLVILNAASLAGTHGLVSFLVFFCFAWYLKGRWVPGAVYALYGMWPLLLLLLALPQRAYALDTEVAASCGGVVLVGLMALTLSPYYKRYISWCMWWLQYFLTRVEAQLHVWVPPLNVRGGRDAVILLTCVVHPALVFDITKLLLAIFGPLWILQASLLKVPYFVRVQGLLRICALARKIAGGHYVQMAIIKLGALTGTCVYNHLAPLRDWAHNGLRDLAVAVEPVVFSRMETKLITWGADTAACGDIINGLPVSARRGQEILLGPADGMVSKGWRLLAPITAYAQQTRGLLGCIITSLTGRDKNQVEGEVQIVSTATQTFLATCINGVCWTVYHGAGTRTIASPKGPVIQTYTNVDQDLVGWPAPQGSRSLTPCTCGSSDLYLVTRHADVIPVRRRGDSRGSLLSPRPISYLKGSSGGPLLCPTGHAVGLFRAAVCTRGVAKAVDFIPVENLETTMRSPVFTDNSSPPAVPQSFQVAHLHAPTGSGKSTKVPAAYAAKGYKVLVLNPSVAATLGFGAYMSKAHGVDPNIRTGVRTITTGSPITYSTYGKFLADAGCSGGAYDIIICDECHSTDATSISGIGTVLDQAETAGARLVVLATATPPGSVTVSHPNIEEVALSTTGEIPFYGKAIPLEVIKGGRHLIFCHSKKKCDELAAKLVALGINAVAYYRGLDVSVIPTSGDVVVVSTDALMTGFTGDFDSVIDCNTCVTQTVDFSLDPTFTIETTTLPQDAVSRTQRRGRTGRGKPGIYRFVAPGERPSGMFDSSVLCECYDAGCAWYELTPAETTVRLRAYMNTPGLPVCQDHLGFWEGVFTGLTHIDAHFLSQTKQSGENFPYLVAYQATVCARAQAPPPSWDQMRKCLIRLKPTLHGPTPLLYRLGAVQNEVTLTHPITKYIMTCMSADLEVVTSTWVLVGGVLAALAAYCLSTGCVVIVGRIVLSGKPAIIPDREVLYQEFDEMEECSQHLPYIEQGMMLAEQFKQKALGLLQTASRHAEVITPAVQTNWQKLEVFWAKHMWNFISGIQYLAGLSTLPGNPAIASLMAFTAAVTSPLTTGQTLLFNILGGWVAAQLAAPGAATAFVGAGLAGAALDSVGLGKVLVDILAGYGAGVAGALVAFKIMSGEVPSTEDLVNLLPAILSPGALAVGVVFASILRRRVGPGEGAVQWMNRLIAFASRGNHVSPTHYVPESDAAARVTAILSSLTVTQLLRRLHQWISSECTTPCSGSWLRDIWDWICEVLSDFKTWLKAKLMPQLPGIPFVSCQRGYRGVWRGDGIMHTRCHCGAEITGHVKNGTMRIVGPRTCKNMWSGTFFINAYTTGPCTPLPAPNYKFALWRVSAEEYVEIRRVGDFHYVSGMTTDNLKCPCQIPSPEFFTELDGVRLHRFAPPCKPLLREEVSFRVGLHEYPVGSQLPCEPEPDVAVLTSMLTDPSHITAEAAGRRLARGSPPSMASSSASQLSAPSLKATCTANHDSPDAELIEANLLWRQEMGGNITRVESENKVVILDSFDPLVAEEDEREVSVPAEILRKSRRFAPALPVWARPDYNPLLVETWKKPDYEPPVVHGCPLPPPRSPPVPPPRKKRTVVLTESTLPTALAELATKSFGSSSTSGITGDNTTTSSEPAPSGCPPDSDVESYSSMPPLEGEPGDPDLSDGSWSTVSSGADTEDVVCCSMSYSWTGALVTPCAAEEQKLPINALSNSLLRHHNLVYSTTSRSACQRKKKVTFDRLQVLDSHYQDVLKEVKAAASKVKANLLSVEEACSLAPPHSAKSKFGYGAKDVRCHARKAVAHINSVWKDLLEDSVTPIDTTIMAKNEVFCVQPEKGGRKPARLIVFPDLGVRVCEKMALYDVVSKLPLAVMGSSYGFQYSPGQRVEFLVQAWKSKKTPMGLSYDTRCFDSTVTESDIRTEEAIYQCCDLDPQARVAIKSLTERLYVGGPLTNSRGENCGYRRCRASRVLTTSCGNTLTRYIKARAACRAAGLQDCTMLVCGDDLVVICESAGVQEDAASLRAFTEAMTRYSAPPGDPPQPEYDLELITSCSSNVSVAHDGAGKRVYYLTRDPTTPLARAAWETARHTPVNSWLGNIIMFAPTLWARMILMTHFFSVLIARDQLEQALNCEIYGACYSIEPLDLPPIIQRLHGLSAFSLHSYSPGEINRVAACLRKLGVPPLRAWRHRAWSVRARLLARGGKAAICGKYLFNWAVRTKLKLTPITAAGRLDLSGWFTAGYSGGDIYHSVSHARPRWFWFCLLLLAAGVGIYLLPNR
Experiment: flow cytometry
Settings: Flow cytometry: 250 nM aptamer, 1e6 cells, 37 C 15 min; selection buffer 25 mM Tris-HCl, 50 mM KCl, 200 mM NaCl, 0.2 mM EDTA, 5% glycerol, 0.5 mM DTT (pH not …)
pKd by entry:
Entry type: numeric. Quantity: pKd, the -log10 of concentration in molar units.

Known results for sequences:
seq: GGGCCTCGATTTAGTTCGCGGCCATAGGGC [ZE4]
assay.metric: pKd
obs.value: 8.05
--
seq: CGCCGTATTAAGATTGGGAGACCTGGTAGA [ZE3]
assay.metric: pKd
obs.value: 8.49
--
seq: GAATGAGGAATAATCTAGCTCCTTCGCTGA [ZE2]
assay.metric: pKd
obs.value: 8.98

Now consider the entry below.
Can you share its pKd? I mean this sequence: TCCATTCATGTAACGAACATAGTTTTGGCA [ZE5] 8.37
